- System: SK-MEL-28 melanoma
- ASSAY TEXT: NCI tumour cell line growth inhibition, 48 h; in the data active = GI50 below about 0.43 µM; inactive = the rest
Outcomes: active, inactive

COMPOUND | ASSAY TARGET | ASSIGNED CLASS
Cc1ccc(C2NC(=S)NC3=C2CCOc2c3ccc3ccccc23)cc1 (centres undefined) | SK-MEL-28 melanoma | inactive
C=C1C[C@](OC)([C@H](O)C(=O)N[C@@H](OC)[C@@H]2C[C@@H](O)C(C)(C)[C@@H](C[C@@H](COC)OC)O2)O[C@H](C)[C@@H]1C | SK-MEL-28 melanoma | active
O=[N+]([O-])c1ccc(-c2nc(-c3ccccc3)c(-c3ccccc3)n2-c2ccccc2)cc1 | SK-MEL-28 melanoma | inactive
Cc1nc2sccn2c(=O)c1CCN1CCC(=C(c2ccc(F)cc2)c2ccc(F)cc2)CC1 | SK-MEL-28 melanoma | inactive
